readout label: melting point

Input line: Request the reported melting point associated with C(=C\c1cc(/C=C/c2ccc3cc[nH]c3c2)[nH]n1)/c1ccc(N2CCCCC2)cc1
Output line: 189 to 191 °C

Input line: Request the reported melting point associated with COc1ccc(Nc2nc3cc4c(cc3[nH]2)C(C)(C)CC(=O)N4)cc1
Output line: 283 to 287 °C

Input line: Request the reported melting point associated with Cc1cc(-c2ccc(C(F)(F)F)cc2)nc(-c2cccc(-c3ccc(S(N)(=O)=O)s3)c2)c1
Output line: 211 °C

Input line: Request the reported melting point associated with O=S(=O)(Oc1ccc2ccccc2c1-c1nnc(Cl)c2ccccc12)C(F)(F)F
Output line: 54 to 55 °C

Input line: Request the reported melting point associated with Oc1ncnc2c1c(Nc1cccc(Cl)c1)nn2Cc1ccccc1
Output line: 148 to 150 °C

Input line: Request the reported melting point associated with CON=Cc1ccc(-c2ccccc2NC(=O)c2c(C)nn(C)c2F)cc1
Output line: 114 to 116 °C

Input line: Request the reported melting point associated with CCOC(Cc1ccc(OCCN2c3ccccc3Sc3ccccc32)cc1)C(=O)O (centres undefined)
Output line: 106 to 113 °C

Input line: Request the reported melting point associated with Cc1ccc2c(c1)C=C(C(=O)O)C(C(F)(F)F)O2 (centres undefined)
Output line: 192 to 193 °C

Input line: Request the reported melting point associated with Cc1ccc2[nH]c(=O)n(CCCN3CCC(C(=O)c4ccc(F)cc4)CC3)c2c1
Output line: 150 °C

----------
readout label: melting point

Input line: Request the reported melting point associated with NC(=S)C1CCCc2cc3c(nc21)CCC3 (stereo unspecified)
Output line: 118 °C

Input line: Request the reported melting point associated with COC(C)c1nc2c(N)nc3ccccc3c2n1CC(C)C (stereo unspecified)
Output line: 185 to 189 °C

Input line: Request the reported melting point associated with Cc1ccc(C(C#N)(Cc2c[nH]cn2)c2ccccc2)cc1 (stereo unspecified)
Output line: 188 to 193 °C

Input line: Request the reported melting point associated with CS(=O)(=O)N1CC(=O)NC(=O)N1Cc1ccc(Cl)cc1
Output line: 145 °C

Input line: Request the reported melting point associated with CCC(CC)Nc1nc(NC(C)=O)nc(C(C)(C)F)n1
Output line: 109 to 111 °C

Input line: Request the reported melting point associated with c1ccc(-c2cnc3ncnn3c2)cc1
Output line: 164 to 167 °C

----------
readout label: melting point

Input line: Request the reported melting point associated with Cn1c2cccc(Br)c2c2c(CC(=O)N3CCCC3)nn(-c3ccccc3)c(=O)c21
Output line: 209 to 210 °C

Input line: Request the reported melting point associated with CC(=O)N1CCc2ccc(Cl)c(S)c2C1
Output line: 92 to 112 °C

Input line: Request the reported melting point associated with CCOC(=O)c1cnc(N2CCSCC2)nc1Cl
Output line: 81 to 83 °C

Input line: Request the reported melting point associated with C1=C2c3ccccc3C3CC2(CN1Cc1ccccc1)c1ccccc13 (stereo not given)
Output line: 135 to 145 °C

Input line: Request the reported melting point associated with CC(C)(C)OC(=O)NN1CCC(C(=O)O)CC1
Output line: 133 to 135 °C

Input line: Request the reported melting point associated with CC(C)(C)C(=O)Nc1ccccc1CC(O)c1ccccc1 (stereo not given)
Output line: 183 to 184 °C

Input line: Request the reported melting point associated with COc1ccc2c(c1)c1c3c(c(-c4ccccc4Cl)cc1n2CCC(=O)NS(=O)(=O)CCN(C)C)C(=O)NC3=O
Output line: 208 to 213 °C

Input line: Request the reported melting point associated with CC(C(=O)O)c1ccc(N2CC3=C(CC=CC3)C2=O)cc1 (stereo not given)
Output line: 220 to 222 °C

Input line: Request the reported melting point associated with O=CNCC=C(c1ccc(-c2ccccc2)cc1)c1ccc(-c2ccccc2)cc1
Output line: 171 to 173 °C

Input line: Request the reported melting point associated with NC(=O)c1cc(=O)c2c(o1)c1ccccc1n2-c1ccccc1
Output line: 263 to 265 °C
